Where do the numbers come from? From ChEMBL document CHEMBL1140342.

System: K562
Experiment: In vitro inhibitory activity against human leukemia K562IU cell line
Type: functional, cell-based
metric: IC50

**Query** Give the reported IC50 for OC[C@H]1O[C@@H](n2cnc3c(NC4CC4)ncnc32)C(O)[C@@H]1O (single isomer, unassigned) (system: K562).
**Result** > 100 µM

**Query** Now give it for C[C@]1(O)C(O)C(n2cnc3c(N)nc(Cl)nc32)O[C@@H]1CO (single isomer, unassigned) too.
**Result** > 100 µM

====

Tested on: K562
Experiment: In vitro inhibitory activity against human leukemia K562IU cell line
Format: functional, cell-based
metric: IC50

- compound: "C[C@@]1(O)[C@H](O)[C@@H](CO)O[C@H]1n1cnc2c(N)ncnc21"
  reportedMeasurement: "> 100 µM"
- compound: "C[C@]1(O)C(n2cnc3c(N)nc(Cl)nc32)O[C@H](CO)[C@H]1O (stereo not given in full)"
  reportedMeasurement: "> 100 µM"
- compound: "CNc1ncnc2c1ncn2[C@@H]1O[C@H](CO)[C@@H](O)C1O (single isomer, unassigned)"
  reportedMeasurement: "> 100 µM"
- compound: "C[C@]1(O)C(n2cnc3c(NC4CC4)ncnc32)O[C@H](CO)[C@H]1O (stereo not given in full)"
  reportedMeasurement: "> 100 µM"
- compound: "CNc1ncnc2c1ncn2C1O[C@H](CO)[C@@H](O)[C@@]1(C)O (stereo not given in full)"
  reportedMeasurement: "> 100 µM"

**Query** Give the reported IC50 for C[C@@]1(n2cnc3c(N)ncnc32)O[C@H](CO)[C@@H](O)C1O (single isomer, unassigned) (system: K562).
**Result** > 100 µM

**Query** Now give it for C[C@]1(O)C(O)[C@H](n2cnc3c(N)ncnc32)O[C@@H]1CO (single isomer, unassigned) too.
**Result** 38.3 µM

**Query** Now give it for C[C@]1(O)C(O)C(n2cnc3c(NC4CC4)ncnc32)O[C@@H]1CO (single isomer, unassigned) too.
**Result** > 100 µM

**Query** Now give it for CNc1ncnc2c1ncn2C1O[C@H](CO)[C@@](C)(O)C1O (single isomer, unassigned) too.
**Result** 93.8 µM

**Query** Now give it for Nc1nc(Cl)nc2c1ncn2[C@@H]1O[C@H](CO)[C@@H](O)C1O (single isomer, unassigned) too.
**Result** 19.5 µM
